system: Staphylococcus aureus; assay: Bactericidal activity against methicillin-resistant Staphylococcus aureus after 24 hrs by M26-A method in presence of 50% human plasma; type: functional
Measurement Type: MBC (µg/mL)
Value expressed in µg/mL; do not type the unit.

Solved cases (2 shown):
[
  {
    "Molecule": "CC(=O)N[C@@H]1[C@H](Oc2c3cc4cc2Oc2ccc(cc2Cl)[C@@H](O[C@@H]2O[C@@H](CO)[C@@H](O)[C@H](O)[C@@H]2NC(C)=O)[C@@H]2NC(=O)[C@H](NC(=O)[C@@H]4NC(=O)[C@H]4NC(=O)[C@@H](Cc5ccc(c(Cl)c5)O3)NC(=O)[C@H](N)c3ccc(O)c(c3)Oc3cc(O)cc4c3)c3ccc(O)c(c3)-c3c(O[C@H]4O[C@H](CO)[C@@H](O)[C@@H](O)[C@@H]4O)cc(O)cc3[C@@H](C(=O)O)NC2=O)O[C@@H](CO)[C@@H](O)[C@@H]1O",
    "Measurement Type": "MBC",
    "Numeric Readout": 1.68
  },
  {
    "Molecule": "COc1cc(Cc2cnc(N)nc2N)c2c(c1OC)OC(C1CC1)C=C2 (centres undefined)",
    "Measurement Type": "MBC",
    "Numeric Readout": 0.11
  }
]

Would you kindly look at the next entry?
Reported MBC for "CN[C@H](CC(C)C)C(=O)N[C@H]1C(=O)N[C@@H](CC(N)=O)C(=O)N[C@H]2C(=O)N[C@H]3C(=O)N[C@H](C(=O)N[C@H](C(=O)O)c4cc(O)cc(O)c4-c4cc3ccc4O)[C@H](O)c3ccc(c(Cl)c3)Oc3cc2cc(c3O[C@@H]2O[C@H](CO)[C@@H](O)[C@H](O)[C@H]2O[C@H]2C[C@](C)(N)[C@H](O)[C@H](C)O2)Oc2ccc(cc2Cl)[C@H]1O" : what is it?
1.52
